System: Hepatitis C virus
TEST: Antiviral activity against R479-resistant HCV genotype 1b infected in human Huh-9-13 cells assessed as reduction in viral replication after 3 days by quantitative RT-PCR
Assay type: functional, organism-based, Hepacivirus hominis
EXPERIMENTAL PARAMETERS: 72 h
QUANTITY MEASURED: pEC50
Answers are plain numbers, as −log10 of the molar value.

Examples with answers:
C/C=C/C[C@@H](C)[C@@H](O)[C@H]1C(=O)N[C@@H](CC)C(=O)N(C)[C@H](C)C(=O)N(CC)[C@@H](C(C)C)C(=O)N[C@@H](C(C)C)C(=O)N(C)[C@@H](CC(C)C)C(=O)N[C@@H](C)C(=O)N[C@H](C)C(=O)N(C)[C@@H](CC(C)C)C(=O)N(C)[C@@H](CC(C)C)C(=O)N(C)[C@@H](C(C)C)C(=O)N1C | 5.56
C/C=C/C[C@@H](C)[C@@H](O)[C@H]1C(=O)N[C@@H](CC)C(=O)N(C)CC(=O)N(C)[C@@H](CC(C)C)C(=O)N[C@@H](C(C)C)C(=O)N(C)[C@@H](CC(C)C)C(=O)N[C@@H](C)C(=O)N[C@H](C)C(=O)N(C)[C@@H](CC(C)C)C(=O)N(C)[C@@H](CC(C)C)C(=O)N(C)[C@@H](C(C)C)C(=O)N1C | 5.70
C[C@@]1(O)[C@H](O)[C@@H](CO)O[C@H]1n1ccc(N)nc1=O | 5.94
[N-]=[N+]=N[C@]1(CO)O[C@@H](n2ccc(N)nc2=O)[C@H](O)[C@@H]1O | 4.81

Provide measured pEC50 value, entry: COc1ccc2c(O[C@@H]3C[C@H]4C(=O)N[C@]5(C(=O)O)C[C@H]5/C=C\CCCCC[C@H](NC(=O)OC5CCCC5)C(=O)N4C3)cc(-c3csc(NC(C)C)n3)nc2c1
5.67

Every entry's value here was drawn from ChEMBL document CHEMBL1649126.
